- Test system: CCRIS mutagenicity, Ames/micronucleus/aberration tests
- assay.procedure: CCRIS mutagenicity studies
- measurement.conditions: Test System: AMES SALMONELLA TYPHIMURIUM; Strain/Indicator: TA98; Metabolic Activation: HAMSTER, LIVER, S-9, AROCLOR 1254 (30%); Method: PREINCUBATION
Activity calls are given as the source filed them. How the calls were made is not given here.
Respond only with the outcome that fits, drawn from active, inactive

Below, 5 compounds whose answers are already recorded.
>>> assigned_class("CCNc1nc(Cl)nc(NC(C)C)n1")
"inactive"
>>> assigned_class("O=C(O)CN(CCN(CC(=O)O)CC(=O)O)CC(=O)O")
"inactive"
>>> assigned_class("Nc1nc2ccccc2[nH]1")
"inactive"
>>> assigned_class("O=C(O)c1cccc(Cl)c1")
"inactive"
>>> assigned_class("CN(C)c1ccc(C(=N)c2ccc(N(C)C)cc2)cc1")
"active"

In: GET /call?item= `CCCCCCCC(=O)O` returns the recorded outcome of this test.
Out: inactive

In: GET /call?item= `CCCCCCCCn1sccc1=O` returns the recorded outcome of this test.
Out: inactive

In: GET /call?item= `CC(=O)OCCC(C)C` returns the recorded outcome of this test.
Out: inactive

In: GET /call?item= `COC(=O)Nc1cccc(OC(=O)Nc2cccc(C)c2)c1` returns the recorded outcome of this test.
Out: active

In: GET /call?item= `CCCCCCC=O` returns the recorded outcome of this test.
Out: inactive

In: GET /call?item= `C1COC1` returns the recorded outcome of this test.
Out: inactive

In: GET /call?item= `N#CCC#N` returns the recorded outcome of this test.
Out: inactive

In: GET /call?item= `CCC(C)(C)C` returns the recorded outcome of this test.
Out: inactive

In: GET /call?item= `O=[N+]([O-])c1ccccc1CCO` returns the recorded outcome of this test.
Out: inactive

In: GET /call?item= `ON=C1CCCCC1` returns the recorded outcome of this test.
Out: inactive

In: GET /call?item= `S=c1[nH]c2ccccc2[nH]1` returns the recorded outcome of this test.
Out: inactive

In: GET /call?item= `Nc1ccc(N)cc1` returns the recorded outcome of this test.
Out: active

Data origin, for the record: PubChem BioAssay AID1259407
